Measured values drawn from paper PMC10221708 for this set.

Tested on: Plasmodium falciparum 3D7
method-description: In vitro antimalarial image-based asexual assay, 3D7
Type: cell-based
condition-label: Plasmodium falciparum, 3D7; chloroquine-sensitive strain; 72 h; n = 4; mean ± SD; read-out: Pf 3D7 IC50 ± SD
measured-quantity: IC50
Give your result as the value with the unit written after it.

Sample answers from the record:
NCCc1c[nH]c2c1C(=O)C1=C(NC=CS1(=O)=O)C2=O [Compound 1, thiaplakortone A]
0.061 µM
NCCc1c(C(F)(F)F)[nH]c2c1C(=O)C1=C(NC=C(C(F)(F)F)S1(=O)=O)C2=O [Compound 11]
6.8 µM

In: // query IC50 value for entry CC(C)(C)OC(=O)NCCc1c[nH]c2c1C(=O)C1=C(NC=C(I)S1(=O)=O)C2=O [Compound 7]
Out: 5.62 µM

In: Try the compound CC(C)(C)OC(=O)NCCc1c(I)[nH]c2c1C(=O)C1=C(NC=C(I)S1(=O)=O)C2=O [Compound 8]
Out: 1.62 µM

In: Try the compound CC(C)(C)OC(=O)NCCc1c[nH]c2c1C(=O)C1=C(NC=CS1(=O)=O)C2=O [Compound 2, Boc-protected thiaplakortone A]
Out: 0.227 µM

In: Try the compound CC(C)(C)OC(=O)NCCc1c[nH]c2c1C(=O)C1=C(NC=C(Br)S1(=O)=O)C2=O [Compound 3]
Out: 3.52 µM

In: Try the compound CC(C)(C)OC(=O)NCCc1c(Br)[nH]c2c1C(=O)C1=C(NC=C(Br)S1(=O)=O)C2=O [Compound 4]
Out: 1.37 µM

In: Try the compound NCCc1c[nH]c2c1C(=O)C1=C(NC=C(I)S1(=O)=O)C2=O [Compound 9]
Out: 2.22 µM

In: Try the compound NCCc1c(I)[nH]c2c1C(=O)C1=C(NC=C(I)S1(=O)=O)C2=O [Compound 10]
Out: 1.69 µM

In: Try the compound NCCc1c[nH]c2c1C(=O)C1=C(NC=C(Br)S1(=O)=O)C2=O [Compound 5]
Out: 0.559 µM

In: Try the compound NCCc1c(Br)[nH]c2c1C(=O)C1=C(NC=C(Br)S1(=O)=O)C2=O [Compound 6]
Out: 1.65 µM
